meta.source: paper PMC8466754

experimental.details: Ester stability assay in buffer (RP-HPLC)
Assay type: physicochemical
measurement.conditions: Tris buffer pH 8.4, 16 h, room temperature, 1 mM compound
measurement.type: percentage of compound peak area present after 16 h of incubation, Tris (%)

| compound | reported.result |
| --- | --- |
| CC(=O)Oc1cc(C)cc(C)c1C(C)(C)CC(=O)N[C@@H](CCN(C/C=C/c1ccc(C#N)cc1)C[C@H]1O[C@@H](n2cnc3c(N)ncnc32)[C@H](O)[C@@H]1O)C(=O)O [Compound 14a] | 93.97 |
| CCCOC(=O)[C@@H](N)CCN(C/C=C/c1ccc(C#N)cc1)C[C@H]1O[C@@H](n2cnc3c(N)ncnc32)[C@H](O)[C@@H]1O [Compound 12d] | 61.32 |
| CC(=O)Oc1cc(C)cc(C)c1C(C)(C)CC(=O)N[C@@H](CCN(C/C=C/c1ccc(C#N)cc1)C[C@H]1O[C@@H](n2cnc3c(N)ncnc32)[C@H](O)[C@@H]1O)C(=O)OC(C)C [Compound 14e] | 87.69 |
